Where do these numbers come from? They come from the DeepSol protein solubility set.

# Assay overview: soluble on expression in E. coli; label from the status in PepcDB or PDB records

# Sequence text, soluble on expression in E. coli
rows = [
    ("MSLDNGIELPGVSFWGGNILQDTDGKYHLFVCGWPEDSPKGHMFWSNSTVFHAVSDRLEGPFKIQNSVGKGHNPEAFQLKDGRVVVYVIDGYYIADGVDSKVWTYGKFSFDSRDRKIIEGLSNLTFARRQDDSYLMVCRGGGVWISKDGLSPYMQLTDKRVYPDVEGRFEDPVVWRDELQYHLIVNDWLGRIAFYQRSKDGVHWVTEQGEAYVPGVSFHKDGAVEHWFKYERPKVFQDEKGRAVQMNFAVIDTIKWNDLPNEGHHHHHH", "not soluble"),
    ("MQDILFDFISTYISLTEDEKNALLSLDLFRSVPKGTILLKEGQKSQESYFVLKGCIRIYYIIDGEEKTTAFYTEMDALTPPCVIHNAPSEYFISCIEDSILTVSNLEMEAEINSKFPKFELMCRMLSEELLAKQQIDFDAFKTSSPEQRYLNVLQNRPDLIQRVPQHQLASFLGIKPQSLSRLRARIVDKKS", "not soluble"),
]
